Measured enrichment ratio, listed per entry for reference.
B1: PhoQ; a variant is named by its letters at X, in order, P23837 (parent)
chain: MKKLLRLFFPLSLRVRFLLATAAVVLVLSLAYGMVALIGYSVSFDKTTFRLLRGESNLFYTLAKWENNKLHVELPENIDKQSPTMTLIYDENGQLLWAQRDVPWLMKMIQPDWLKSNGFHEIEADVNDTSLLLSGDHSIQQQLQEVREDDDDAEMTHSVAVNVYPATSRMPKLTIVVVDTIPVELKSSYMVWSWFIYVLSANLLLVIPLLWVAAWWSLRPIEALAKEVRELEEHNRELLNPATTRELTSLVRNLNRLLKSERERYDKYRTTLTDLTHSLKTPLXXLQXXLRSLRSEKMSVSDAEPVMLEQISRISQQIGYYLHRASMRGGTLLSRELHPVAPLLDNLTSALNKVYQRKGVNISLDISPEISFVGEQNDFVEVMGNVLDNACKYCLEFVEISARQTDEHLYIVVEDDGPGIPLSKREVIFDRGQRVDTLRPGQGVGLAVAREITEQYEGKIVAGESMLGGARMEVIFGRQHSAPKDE

- Variants of: B1
- assay_remarks: enrichment ratio after two sorts for PhoP signalling (ratio (wild type AVST 3.29)); higher = more functional
- condition_label: with PhoP (E. coli)
Over roughly 140,000 sequences, “enrichment ratio after two sorts for PhoP signalling” has its median near 0; the highest 2% begin near 11. Shown is part of a subset that was picked to be rich in the highest values.

GICL : 9.48

Below: the item to evaluate.
What measured enrichment ratio goes with TVGM ?
10.4
